- Tested on: HeLa cells
- PROCEDURE SUMMARY: GFP mRNA delivery (GFP+ cells)
- Assay type: cell-based
- TEST CONTEXT: LNP/mRNA=10/1; [mRNA]=0.86 μg mL^−1; 24 h exposure
- Source text: Messenger RNA delivery has great potentials for cancer therapy, protein replacement therapy and neurological disorder treatments.^42 The intracellular delivery of mRNA using OCholB LNPs was studied using GFP mRNA and different cell lines (HeLa, B16F10, HEK-293, NIH/3T3 and Jurkat). […] As to the OCholB LNPs, 75-OCholB (62.0% of GFP^+ cells), 76-OCholB (79.8%), 77-OCholB (73.5%), 78-OCholB (67.1%), 80-OCholB (55.6%), 81-OCholB (51.6%) and 304-OCholB (52.1%) are all determined to be effective. […]
Binary call on GFP^+ cells: 1 (yes) from 60% upward, 0 (no) beneath that.

CCN(CC)CCN(CCC(=O)OCCSSCCNC(=O)OC1CCC2(C)C(=CCC3C2CCC2(C)C(C(C)CCCC(C)C)CCC32)C1)CCC(=O)OCCSSCCNC(=O)OC1CCC2(C)C(=CCC3C2CCC2(C)C(C(C)CCCC(C)C)CCC32)C1 (stereo not drawn)    1 (yes)
CC(C)CCCC(C)C1CCC2C3CC=C4CC(OC(=O)NCCSSCCOC(=O)CCN(CCCN(CCO)CCO)CCC(=O)OCCSSCCNC(=O)OC5CCC6(C)C(=CCC7C6CCC6(C)C(C(C)CCCC(C)C)CCC76)C5)CCC4(C)C3CCC12C (stereo not drawn)    0 (no)

input: Textbook exercise: given the entry CC(C)CCCC(C)C1CCC2C3CC=C4CC(OC(=O)NCCSSCCOC(=O)CCN(C)CCN(CCN(C)CCC(=O)OCCSSCCNC(=O)OC5CCC6(C)C(=CCC7C6CCC6(C)C(C(C)CCCC(C)C)CCC76)C5)CCN(C)CCC(=O)OCCSSCCNC(=O)OC5CCC6(C)C(=CCC7C6CCC6(C)C(C(C)CCCC(C)C)CCC76)C5)CCC4(C)C3CCC12C (stereo not drawn) , state whether its GFP^+ cells is greater than or equal to 60%.
output: 0 (no)

input: Textbook exercise: given the entry CC(C)CCCC(C)C1CCC2C3CC=C4CC(OC(=O)NCCSSCCOC(=O)CCN(CCC(=O)OCCSSCCNC(=O)OC5CCC6(C)C(=CCC7C6CCC6(C)C(C(C)CCCC(C)C)CCC76)C5)CCN5CCCC5)CCC4(C)C3CCC12C (stereo not drawn) , state whether its GFP^+ cells is greater than or equal to 60%.
output: 1 (yes)

###

- System: HeLa-DsRed cells
- Type: cell-based
- TEST CONTEXT: (−30)GFP-Cre 100 nM, lipid 6.6 μg mL^−1
Answer each item with its documented GFP positive (GFP^+) cells.
Remember to follow the number with its unit.

# return GFP positive (GFP^+) cells for each item in the list
1. CC(C)CCCC(C)C1CCC2C3CC=C4CC(OC(=O)NCCSSCCOC(=O)CCN(CCC(=O)OCCSSCCNC(=O)OC5CCC6(C)C(=CCC7C6CCC6(C)C(C(C)CCCC(C)C)CCC76)C5)CCN(C)C)CCC4(C)C3CCC12C (centres unmarked)
2. CC(C)CCCC(C)C1CCC2C3CC=C4CC(OC(=O)NCCSSCCOC(=O)CCN(C)CCN(CCN(C)CCC(=O)OCCSSCCNC(=O)OC5CCC6(C)C(=CCC7C6CCC6(C)C(C(C)CCCC(C)C)CCC76)C5)CCN(C)CCC(=O)OCCSSCCNC(=O)OC5CCC6(C)C(=CCC7C6CCC6(C)C(C(C)CCCC(C)C)CCC76)C5)CCC4(C)C3CCC12C (centres unmarked)
3. CCN(CC)CCCN(CCC(=O)OCCSSCCNC(=O)OC1CCC2(C)C(=CCC3C2CCC2(C)C(C(C)CCCC(C)C)CCC32)C1)CCC(=O)OCCSSCCNC(=O)OC1CCC2(C)C(=CCC3C2CCC2(C)C(C(C)CCCC(C)C)CCC32)C1 (centres unmarked)

output:
1: 90.1%; 2: 48.8%; 3: 91.5%

# return GFP positive (GFP^+) cells for each item in the list
1. CC(C)CCCC(C)C1CCC2C3CC=C4CC(OC(=O)NCCSSCCOC(=O)CCN(CCC(=O)OCCSSCCNC(=O)OC5CCC6(C)C(=CCC7C6CCC6(C)C(C(C)CCCC(C)C)CCC76)C5)CCN5CCCC5)CCC4(C)C3CCC12C (centres unmarked)
2. CC(C)CCCC(C)C1CCC2C3CC=C4CC(OC(=O)NCCSSCCOC(=O)CCN(CCC(=O)OCCSSCCNC(=O)OC5CCC6(C)C(=CCC7C6CCC6(C)C(C(C)CCCC(C)C)CCC76)C5)CCC5CCCN5C)CCC4(C)C3CCC12C (centres unmarked)

output:
1: 98.7%; 2: 97.9%

###

- PROCEDURE SUMMARY: Thiol-triggered size variation of OCholB LNPs (DTT, cysteine; DLS)
- Format: physicochemical
- TEST CONTEXT: 10 mM DTT, 24 h
EXPERIMENTAL ENDPOINT: increase in averaged hydrodynamic diameter (%)
Numbers only, in %.

CC(C)CCCC(C)C1CCC2C3CC=C4CC(OC(=O)NCCSSCCOC(=O)CCN(CCC(=O)OCCSSCCNC(=O)OC5CCC6(C)C(=CCC7C6CCC6(C)C(C(C)CCCC(C)C)CCC76)C5)CCN5CCOCC5)CCC4(C)C3CCC12C (centres unmarked)    179.5

input: Tell me measured increase in averaged hydrodynamic diameter for CCN(CC)CCN(CCC(=O)OCCSSCCNC(=O)OC1CCC2(C)C(=CCC3C2CCC2(C)C(C(C)CCCC(C)C)CCC32)C1)CCC(=O)OCCSSCCNC(=O)OC1CCC2(C)C(=CCC3C2CCC2(C)C(C(C)CCCC(C)C)CCC32)C1 (centres unmarked) please.
output: 2872.4

###

- Tested on: HeLa cells
- PROCEDURE SUMMARY: GFP mRNA delivery (GFP+ cells)
- Assay type: cell-based
- TEST CONTEXT: LNP/mRNA=10/1; [mRNA]=0.86 μg mL^−1; 24 h exposure
Answer each item with its documented GFP^+ cells.
Remember to follow the number with its unit.

These recorded examples may help you get a feel for the data.
CC(C)CCCC(C)C1CCC2C3CC=C4CC(OC(=O)NCCSSCCOC(=O)CCN(CCC(=O)OCCSSCCNC(=O)OC5CCC6(C)C(=CCC7C6CCC6(C)C(C(C)CCCC(C)C)CCC76)C5)CCC5CCCN5C)CCC4(C)C3CCC12C (centres unmarked)    73.5%
CC(C)CCCC(C)C1CCC2C3CC=C4CC(OC(=O)NCCSSCCOC(=O)CCN(CCC(=O)OCCSSCCNC(=O)OC5CCC6(C)C(=CCC7C6CCC6(C)C(C(C)CCCC(C)C)CCC76)C5)CCN(C)C)CCC4(C)C3CCC12C (centres unmarked)    67.1%
CC(C)CCCC(C)C1CCC2C3CC=C4CC(OC(=O)NCCSSCCOC(=O)CCN(CCCN(C)C)CCC(=O)OCCSSCCNC(=O)OC5CCC6(C)C(=CCC7C6CCC6(C)C(C(C)CCCC(C)C)CCC76)C5)CCC4(C)C3CCC12C (centres unmarked)    55.6%
CCN(CC)CCCN(CCC(=O)OCCSSCCNC(=O)OC1CCC2(C)C(=CCC3C2CCC2(C)C(C(C)CCCC(C)C)CCC32)C1)CCC(=O)OCCSSCCNC(=O)OC1CCC2(C)C(=CCC3C2CCC2(C)C(C(C)CCCC(C)C)CCC32)C1 (centres unmarked)    51.6%

Pending molecule:
input: Tell me measured GFP^+ cells for CC(C)CCCC(C)C1CCC2C3CC=C4CC(OC(=O)NCCSSCCOC(=O)CCN(CCC(=O)OCCSSCCNC(=O)OC5CCC6(C)C(=CCC7C6CCC6(C)C(C(C)CCCC(C)C)CCC76)C5)CCN5CCOCC5)CCC4(C)C3CCC12C (centres unmarked) please.
output: 2.5%
